Test system: Salmonella enterica typhimurium
Assay: growth AUC normalised to DMSO control (fraction of control); higher = less growth inhibition, active = hit call of the paper
Conditions: 20 µM
Where a name gives a salt, the structure may show the parent alone.
Assignment: determine reported growth AUC normalised to DMSO control for the given molecules.
Give bare numbers.

Kindly state the measured growth AUC normalised to DMSO control obtained for COc1cc(C)nc(-n2nc(C)cc2OC)n1 [Epirizole] with Salmonella enterica typhimurium.
0.997

Provide the reported growth AUC normalised to DMSO control of each entry below, same order.
1. O=C(NCC(O)CO)c1c(I)c(C(=O)NCC(O)CO)c(I)c(N(CCO)C(=O)CO)c1I (stereo unspecified) [Ioversol]
2. C#Cc1cccc(Nc2ncnc3cc(OCCOC)c(OCCOC)cc23)c1 [Erlotinib]
3. OCCOCCN1CCN(C2=Nc3ccccc3Sc3ccccc32)CC1 [Quetiapine hemifumarate]
4. CN1CCC(=C2c3ccccc3CC(=O)c3sccc32)CC1 [Ketotifen fumarate]
5. CC1(C)O[C@@H]2C[C@H]3[C@@H]4C[C@H](F)C5=CC(=O)C=C[C@]5(C)[C@@]4(F)[C@@H](O)C[C@]3(C)[C@]2(C(=O)CO)O1 [Fluocinolone acetonide]
6. CC(C)NC[C@@H](O)COc1ccc(CC(N)=O)cc1 [(R,+) Atenolol]

1. 1.01
2. 1
3. 0.999
4. 1.01
5. 1
6. 1.01

Provide the reported growth AUC normalised to DMSO control of each entry below, same order.
1. CC=C(C)C(=O)OC1C(OC(C)=O)C2(CO)C(O)CC3(C)C(=CCC4C5(C)CCC(OC6OC(C(=O)O)C(OC7OC(CO)C(O)C(O)C7O)C(O)C6OC6OC(CO)C(O)C(O)C6O)C(C)(CO)C5CCC43C)C2CC1(C)C (stereo not drawn) [Beta-Escin]
2. Nc1nc(NC2CC2)c2ncn([C@H]3C=C[C@@H](CO)C3)c2n1 [Abacavir sulfate]
3. CCC(C)n1ncn(-c2ccc(N3CCN(c4ccc(OCC5COC(Cn6cncn6)(c6ccc(Cl)cc6Cl)O5)cc4)CC3)cc2)c1=O (stereo unspecified) [Itraconazole]
4. COc1cc(C)c(/C=C/C(C)=C/C=C/C(C)=C/C(=O)O)c(C)c1C [Acitretin]

1. 0.997
2. 1.01
3. 1.01
4. 0.995
